# maps each entry to its cell viability of RIN-m cells (MTT viability assay)
Molecular target: T1, human Islet Amyloid Polypeptide (human)
T1 peptide: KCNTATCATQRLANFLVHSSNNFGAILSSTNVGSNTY
Experiment: cell-based or functional assay
Experimental Endpoint: cell viability of RIN-m cells (MTT viability assay) (% cell viability)

Binder | Unit Name | Obs Value
KCNTATCVTQRLADFLVRSSSNIGAIYSPTNVGSNTY [chicken IAPP] | % cell viability | 76
KCNTATCVTQRLANFLLRSSNNLGAILSPTNVGSNTY [raccoon IAPP] | % cell viability | 72
